ASSAY_REMARKS: TLR3 IRF3 reporter activation blockers – cell-based, poly I:C stimulus, luciferase, 10K MLSCN set, primary screen (AID 602277)
CONDITIONS: HEK293-TLR3 RL24 IRF3 luciferase reporter, at 10 µM, stronger effect = higher value
MEASUREMENT_TYPE: inhibition (%)
Give a bare numeral; the unit % is implied.

Consider the compound COc1ccc(-n2c(SCC(=O)c3c(N)n(C)c(=O)n(C)c3=O)nc3ccccc32)cc1 and give its measured inhibition. 14.8

Record: Cc1nc(-c2cccc(N)c2)cs1 -15.1

Record: Cc1ccc(N2C(=O)c3oc4ccccc4c(=O)c3C2c2cccc(O)c2)nc1 (stereo unspecified) 14.6

Record: O=C1CCCC(O)=C1C=Nc1ccc2c(c1)oc1ccccc12 -100

Record: CCOC(=O)c1c(C)[nH]c(C)c1C(=O)COC(=O)CNC(=O)c1ccc(OCC)cc1 28.6

Record: c1ccc(CCNc2ccc3nncn3n2)cc1 12.8

Record: CCOC(=O)c1c(NC(=O)c2cccs2)sc(C)c1C 2.83

Record: CC(NC(=O)COc1ccccc1)C(=O)NC1=NCCS1 (stereo unspecified) 20.3

Record: O=C(CSc1nnc(CNC(=O)c2cccs2)o1)NC1CCCC1 12.5

Record: CCc1nnc2n1N=C(c1ccc(-c3ccc(Cl)cc3Cl)o1)CS2 10.2

Record: C=CCN=C1SCC(=O)N1S(=O)(=O)c1ccc(C)cc1 11.1

* * *

ASSAY_REMARKS: reduction of polyQ htt aggregates in cells – imaging, exon1htt(103Q)mCFP cells, high-content imaging, primary screen (AID 483);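 note: compound exposure lasted 3 days before fixation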
CONDITIONS: exon1htt(103Q)mCFP cell line, aggregate imaging, at 2 µM; stronger effect = higher value
MEASUREMENT_TYPE: inhibition of aggregation (%)
Give a bare numeral; the unit % is implied.

Consider the molecule O=S(=O)(NC1CCCCC1NS(=O)(=O)c1ccc(F)cc1)c1ccc(F)cc1 (stereo unspecified) and give its measured inhibition of aggregation. -1.8

Record: Cn1nnnc1SCC(=O)N1CCN(c2cccc(Cl)c2)CC1 10.8

Record: CCC(C)(C)n1nnnc1C(c1cc2cc(C)ccc2[nH]c1=O)N1CCCC1 (stereo unspecified) -27.7

Record: Cc1cc(C(=O)CSc2nc3ccccc3[nH]2)c(C)n1C 7.6

Record: O=C(CN(C(=O)CCNC(=O)c1ccco1)c1ccccc1)NC1CCCC1 27.1

Record: COc1ccc(OCCC(=O)NCc2ccccc2)cc1 19.2

Record: CS(=O)(=O)c1ccc2nc(NC(=O)C3C4C=CC(C4)C3C(=O)O)sc2c1 (stereo unspecified) 0.5

Record: CCOC(=O)c1ccccc1NC(=O)c1ccc2c(=O)n3c(nc2c1)CCCCC3 9.6

Record: COc1ccc(C/C(N)=N/n2cnnc2)cc1Cl -13.5

Record: COc1cccc(N2CCN(CC(=O)Nc3nnc(-c4ccccc4)s3)CC2)c1 2.3

Record: Cc1ccc2cc(C#N)c(NCCCNC(=O)C3CCCO3)nc2c1 (stereo unspecified) -8.8

* * *

ASSAY_REMARKS: reduction of polyQ htt aggregates in cells – imaging, exon1htt(103Q)mCFP cells, high-content imaging, primary screen (AID 483);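 note: compound exposure lasted 3 days before fixation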;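 for nuclei count: percent of the per-plate median nuclei count of sample wells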
CONDITIONS: exon1htt(103Q)mCFP cell line, aggregate imaging, at 2 µM; measured here: cell count, toxicity
MEASUREMENT_TYPE: nuclei count (%)
Give a bare numeral; the unit % is implied.

Consider the compound Cc1nc2scc(-c3ccco3)c2c(=O)n1/N=C/N(C)C and give its measured nuclei count. 86.6

Record: Brc1ccccc1-c1nc(-c2ccccc2)no1 94

Record: CCc1ccccc1NC(=O)c1cnc2n(c1=O)CCS2 94.6

Record: CCOC(=O)c1sc(N)c(C(=O)OCC)c1COC(=O)C1CC(=O)N(Cc2ccco2)C1 (stereo unspecified) 104

Record: Cc1ccnc(NC(=O)C2CCC(CNc3c(N4CCCC4)c(=O)c3=O)CC2)c1 (stereo unspecified) 113

Record: Nc1c(C(=O)NCCN2CCOCC2)c2nc3ccccc3nc2n1-c1ccc2c(c1)OCO2 96.7

Record: CCN(CC)c1ccc(NC(=O)CN2C(=O)CC(C)(C)S(=O)(=O)c3ccccc32)c(C)c1 60.8

Record: O=C(OCC#CCSc1nc2ccccc2s1)c1ccco1 116

Record: CN1CC=C2C(C#N)=C(N)C(C#N)(C#N)C(Cc3ccccc3)C2C1 (stereo unspecified) 81.2

Record: CCn1c(SCC(=O)Nc2ccc(C(=O)OC)cc2)nnc1-c1cccs1 110

Record: CCOCCc1nnc(NC(=O)c2ccc(OC)c(OC)c2)s1 97.6
